These entries and their values trace back to patent US6743796B2.

Target: dopamine autoreceptor (D2 Quin.) (Rattus norvegicus)
Construct: from tissue; host or cells: rat striatal brain tissue homogenate
Sequence (P61169 whole entry): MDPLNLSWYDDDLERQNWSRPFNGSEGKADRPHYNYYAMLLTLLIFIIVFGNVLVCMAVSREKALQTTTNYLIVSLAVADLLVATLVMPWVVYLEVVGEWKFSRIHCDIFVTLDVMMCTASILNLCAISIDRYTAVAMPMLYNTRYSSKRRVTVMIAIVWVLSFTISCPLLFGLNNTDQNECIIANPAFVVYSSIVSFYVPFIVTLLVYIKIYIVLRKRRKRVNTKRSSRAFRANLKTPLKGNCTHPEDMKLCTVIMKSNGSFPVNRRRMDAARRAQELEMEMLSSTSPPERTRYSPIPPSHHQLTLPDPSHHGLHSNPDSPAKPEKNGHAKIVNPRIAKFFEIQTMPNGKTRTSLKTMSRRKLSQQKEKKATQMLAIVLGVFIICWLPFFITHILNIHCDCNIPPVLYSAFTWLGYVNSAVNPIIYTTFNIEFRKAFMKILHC
Test: Affinity for the dopamine autoreceptor: [3H]-quinpirole binding in homogenized rat striatal brain tissue
Details: rat striatal brain tissue (high-affinity agonist state)
Protocol: Affinity for the dopamine autoreceptor was established by a modification of the standard pharmacological test procedure of Seemen and Schaus, European Journal of Pharmacology 203: 105-109, 1991, wherein homogenized rat striatal brain tissue is incubated with [^3H]-quinpirole (Quin.) at various concentrations of test compound, filtered, washed and counted in a Betaplate scintillation counter.
observation type: IC50 (nM)

> print(dat)
                         molecular.string  observation.type  endpoint.result
1  O=C1Nc2cccc(N3CCN(Cc4ccccc4)CC3)c2C1=O              IC50             0.57
